- TARGET_SYSTEM: Rho transcription termination factor (Deinococcus radiodurans R1)
- Sequence: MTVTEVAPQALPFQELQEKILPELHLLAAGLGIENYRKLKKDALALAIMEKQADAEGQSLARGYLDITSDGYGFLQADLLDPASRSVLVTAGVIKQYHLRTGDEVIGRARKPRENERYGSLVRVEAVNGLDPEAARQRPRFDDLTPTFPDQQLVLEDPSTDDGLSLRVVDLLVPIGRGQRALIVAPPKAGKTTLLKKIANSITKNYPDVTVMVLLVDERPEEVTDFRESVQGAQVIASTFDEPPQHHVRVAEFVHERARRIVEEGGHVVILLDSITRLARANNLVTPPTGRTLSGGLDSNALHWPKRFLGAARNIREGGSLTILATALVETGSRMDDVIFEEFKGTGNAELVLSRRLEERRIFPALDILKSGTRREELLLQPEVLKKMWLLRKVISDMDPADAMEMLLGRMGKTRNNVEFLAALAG
- RUN_DESCRIPTION: EMSA
- RUN_PARAMETERS: EMSA: 20 mM Tris-HCl pH 8.0, 1 mM MgCl2, 20 mM KCl, 10 mM Na phosphate pH 8.0, 10% glycerol, 500 nM heparin, 1 nM RNA, 37 C 1 h (PNPase: TMK, 50 mM Tris-HCl pH …)
MEASURED_ATTRIBUTE: Kd (µM)
Please respond with the number in µM and leave the unit unwritten.

Quick one: Kd of NNNGNNNNNGNNNNNGNNNNNGNN [Ctrl 24-mer (random N, degenerate)] ?
3.94
